Experiment: Oral bioavailability in monkey
Format: ADME, organism-based, Macaca mulatta
Conditions: rhesus monkey, in vivo
Parameter Measured: bioavailability (%)
Give just the numeric value; % need not be written.

Please indicate bioavailability recorded for `CCCCN1C(=O)[C@@H]([C@H](O)C2CCCCC2)NC(=O)C12CCN(Cc1ccc(Oc3ccc(C(=O)O)cc3)cc1)CC2`
30

----------
In this section, each of the molecules is paired with its reported pKi.
Target: C-C chemokine receptor type 1 (Homo sapiens, UniProt P32246)
Sequence (P32246 whole entry): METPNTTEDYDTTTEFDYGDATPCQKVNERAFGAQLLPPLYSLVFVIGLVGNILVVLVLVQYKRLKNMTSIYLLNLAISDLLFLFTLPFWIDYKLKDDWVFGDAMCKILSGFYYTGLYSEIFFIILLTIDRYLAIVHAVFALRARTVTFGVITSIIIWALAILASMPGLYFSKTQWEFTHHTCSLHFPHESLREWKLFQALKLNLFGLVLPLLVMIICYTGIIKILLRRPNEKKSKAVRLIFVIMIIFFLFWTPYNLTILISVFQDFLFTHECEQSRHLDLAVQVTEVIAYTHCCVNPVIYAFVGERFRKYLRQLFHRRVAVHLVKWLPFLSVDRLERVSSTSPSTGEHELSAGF
Field pKi (float): negative decimal logarithm of the concentration in molar.

| Chemical Smiles | Tgt | Readout Value |
| --- | --- | --- |
| CC(=O)Nc1ccc(O)cc1OC[C@@](C)(O)CNC1CCN(Cc2ccc(Cl)cc2)CC1 | C-C chemokine receptor type 1 (Homo sapiens, UniProt P32246) | 8.30 |

Return pKi for the following molecule: `CC1(C)CN(CC/C=C2/c3cc(C(=O)O)ccc3OCc3ncccc32)C[C@H](c2ccc(Cl)cc2)[C@H]1O`
8.64
